Catalogue of AIRE transcriptional activation functional score readings, one per entry.
B1: library; numbered along this chain (parent)
chain: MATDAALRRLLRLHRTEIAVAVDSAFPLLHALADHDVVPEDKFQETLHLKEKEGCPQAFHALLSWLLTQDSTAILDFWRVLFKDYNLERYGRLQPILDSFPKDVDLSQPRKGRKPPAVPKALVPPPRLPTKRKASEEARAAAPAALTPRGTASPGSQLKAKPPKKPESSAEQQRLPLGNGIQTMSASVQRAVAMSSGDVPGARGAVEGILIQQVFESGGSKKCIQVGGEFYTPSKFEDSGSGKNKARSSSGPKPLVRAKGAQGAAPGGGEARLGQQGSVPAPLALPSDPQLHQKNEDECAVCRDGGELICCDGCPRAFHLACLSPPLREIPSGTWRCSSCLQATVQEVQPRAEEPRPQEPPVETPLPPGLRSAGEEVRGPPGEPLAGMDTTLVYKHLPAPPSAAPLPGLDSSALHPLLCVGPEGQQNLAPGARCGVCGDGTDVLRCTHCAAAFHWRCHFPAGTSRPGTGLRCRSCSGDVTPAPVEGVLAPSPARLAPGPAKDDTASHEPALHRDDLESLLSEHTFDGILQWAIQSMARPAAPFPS

variants of: B1; assay: AIRE transcriptional activation functional score (insulin promoter-GFP; nonsense median 0, synonymous median 1) (normalised score); higher = higher AIRE activity (more reporter activation); conditions: with insulin promoter-GFP reporter in HEK293
Property label: AIRE transcriptional activation functional score

>>> measured_number("R8Y")
-0.316
>>> measured_number("G227F")
-0.195
>>> measured_number("P350S")
0.947
>>> measured_number("Q426W")
1.64
>>> measured_number("A121L")
1.09
>>> measured_number("P325A")
1.15
>>> measured_number("A25D")
0.297
>>> measured_number("D36S")
0.294
>>> measured_number("L417A")
0.892
>>> measured_number("P384I")
0.998
>>> measured_number("V37D")
0.512
>>> measured_number("S411T")
0.867
>>> measured_number("E354D")
1.22
